Data provenance: PubChem BioAssay AID2060327

System: PC-3 multi-cell spheroids, viability
Assay: Anticancer human tumor PC-3 cell line growth inhibition [IpAb];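 note: spheroids exposed to compounds for 7 days before readout; 100% = DMSO vehicle control wells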
Conditions: second compound 3.16 µM; first compound 0.1 µM; hits give low values
measured_quantity: viability, T/C (%)
Enter your answer as a number in %; do not include the unit.

INSERT INTO results (molecule, target, reported) VALUES
  ('CC(C)n1nc(-c2ccc3oc(N)nc3c2)c2c(N)ncnc21 + CC(C)NCC(C(=O)N1CCN(c2ncnc3c2C(C)CC3O)CC1)c1ccc(Cl)cc1', 'PC-3 multi-cell spheroids, viability', 4.13),
  ('CC1(C)CCC(CN2CCN(c3ccc(C(=O)NS(=O)(=O)c4ccc(NCC5CCOCC5)c([N+](=O)[O-])c4)c(Oc4cnc5[nH]ccc5c4)c3)CC2)=C(c2ccc(Cl)cc2)C1 + CC(C)NCC(C(=O)N1CCN(c2ncnc3c2C(C)CC3O)CC1)c1ccc(Cl)cc1', 'PC-3 multi-cell spheroids, viability', 15.3);

Data request: Endpoint output: viability, T/C of C=CC(=O)N1CCN(c2nc(=O)n(-c3c(C)ccnc3C(C)C)c3nc(-c4c(O)cccc4F)c(F)cc23)C(C)C1 (stereo not given) + CC(C)NCC(C(=O)N1CCN(c2ncnc3c2C(C)CC3O)CC1)c1ccc(Cl)cc1 . Value?
Data returned: 15

Data request: Suppose we examine the molecule Cn1ncc(Cl)c1-c1cc(C(=O)NC(CN)Cc2cccc(F)c2)sc1Cl (stereo not given) + CC(C)NCC(C(=O)N1CCN(c2ncnc3c2C(C)CC3O)CC1)c1ccc(Cl)cc1 ; what viability, T/C value has been reported?
Data returned: 15.8

Data request: What value of viability, T/C has been reported for the following molecule? CCCS(=O)(=O)Nc1ccc(F)c(C(=O)c2c[nH]c3ncc(-c4ccc(Cl)cc4)cc23)c1F + CC(C)NCC(C(=O)N1CCN(c2ncnc3c2C(C)CC3O)CC1)c1ccc(Cl)cc1
Data returned: 15.6

----------
Tested on: PC-3 multi-cell spheroids, viability
Assay: Anticancer human tumor PC-3 cell line growth inhibition [IpAb];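 note: spheroids exposed to compounds for 7 days before readout; 100% = DMSO vehicle control wells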
Conditions: second compound 0.1 µM; first compound 0.001 µM; hits give low values
measured_quantity: viability, T/C

Data request: Quick one: viability, T/C of CC(C)n1nc(-c2ccc3oc(N)nc3c2)c2c(N)ncnc21 + CC(C)NCC(C(=O)N1CCN(c2ncnc3c2C(C)CC3O)CC1)c1ccc(Cl)cc1 ?
Data returned: 52.6%

Data request: Endpoint output: viability, T/C of CC(C)n1nc(-c2ccc3oc(N)nc3c2)c2c(N)ncnc21 + CCN1CCN(Cc2ccc(Nc3ncc(F)c(-c4cc(F)c5nc(C)n(C(C)C)c5c4)n3)nc2)CC1 . Value?
Data returned: 54.8%

Data request: Endpoint output: viability, T/C of Cn1ncnc1[C@H]1c2n[nH]c(=O)c3cc(F)cc(c23)N[C@@H]1c1ccc(F)cc1 + CCN1CCN(Cc2ccc(Nc3ncc(F)c(-c4cc(F)c5nc(C)n(C(C)C)c5c4)n3)nc2)CC1 . Value?
Data returned: 50.3%

Data request: What value of viability, T/C has been recorded for this entry: Cn1ncnc1[C@H]1c2n[nH]c(=O)c3cc(F)cc(c23)N[C@@H]1c1ccc(F)cc1 + CC(C)NCC(C(=O)N1CCN(c2ncnc3c2C(C)CC3O)CC1)c1ccc(Cl)cc1
Data returned: 71.4%

----------
Attribute: viability, T/C
Test system: PC-3 multi-cell spheroids, viability
Test: Anticancer human tumor PC-3 cell line growth inhibition [IpAb];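 note: spheroids exposed to compounds for 7 days before readout; 100% = DMSO vehicle control wells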
Conditions: second compound 0.316 µM; first compound 0.01 µM; hits give low values
Description: Combinatorial screen of targeted agents with ipatasertib and abemaciclib in multi-cell type tumor spheroids […] Compounds. […] If the clinical Cmax for an agent had not been determined, the highest concentration tested was 10 microM. NCI60 Cell Culture. […] The optimal seeding densities for each of the cell lines at each time point assessed were determined prior to performing the concentration response studies. […]
Give the quantity in %, number only.

INSERT INTO measurements (compound, reported) VALUES
  ('Cn1ncnc1[C@H]1c2n[nH]c(=O)c3cc(F)cc(c23)N[C@@H]1c1ccc(F)cc1 + CCN1CCN(Cc2ccc(Nc3ncc(F)c(-c4cc(F)c5nc(C)n(C(C)C)c5c4)n3)nc2)CC1', 54.5),
  ('COc1c(OCCCN2CCOCC2)ccc2c3n(c(=NC(=O)c4cnc(N)nc4)nc12)CCN3 + CCN1CCN(Cc2ccc(Nc3ncc(F)c(-c4cc(F)c5nc(C)n(C(C)C)c5c4)n3)nc2)CC1', 170),
  ('CC(C)n1nc(-c2ccc3oc(N)nc3c2)c2c(N)ncnc21 + CCN1CCN(Cc2ccc(Nc3ncc(F)c(-c4cc(F)c5nc(C)n(C(C)C)c5c4)n3)nc2)CC1', 20.1),
  ('COc1c(OCCCN2CCOCC2)ccc2c3n(c(=NC(=O)c4cnc(N)nc4)nc12)CCN3 + CC(C)NCC(C(=O)N1CCN(c2ncnc3c2C(C)CC3O)CC1)c1ccc(Cl)cc1', 40);

Data request: Recorded viability, T/C of Cn1ncnc1[C@H]1c2n[nH]c(=O)c3cc(F)cc(c23)N[C@@H]1c1ccc(F)cc1 + CC(C)NCC(C(=O)N1CCN(c2ncnc3c2C(C)CC3O)CC1)c1ccc(Cl)cc1 , please.
Data returned: 40.3

Data request: Reported viability, T/C, compound CC(C)n1nc(-c2ccc3oc(N)nc3c2)c2c(N)ncnc21 + CC(C)NCC(C(=O)N1CCN(c2ncnc3c2C(C)CC3O)CC1)c1ccc(Cl)cc1 : ____
Data returned: 11.8
